- tested-system: 17β-HSD1 (Homo sapiens)
- Construct: endogenous in cells; host or cells: T-47D
- Sequence (P14061 whole entry): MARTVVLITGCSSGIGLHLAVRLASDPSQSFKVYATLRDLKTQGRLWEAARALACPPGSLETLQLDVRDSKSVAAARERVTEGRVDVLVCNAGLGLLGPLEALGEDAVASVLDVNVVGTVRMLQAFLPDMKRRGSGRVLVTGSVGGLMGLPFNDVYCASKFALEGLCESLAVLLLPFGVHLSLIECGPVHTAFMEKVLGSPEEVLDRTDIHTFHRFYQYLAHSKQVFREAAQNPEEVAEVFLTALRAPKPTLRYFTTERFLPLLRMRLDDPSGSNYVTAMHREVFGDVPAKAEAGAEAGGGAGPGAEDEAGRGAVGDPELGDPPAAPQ
- method-summary: Inhibition of 17β-HSD1 in T-47D intact cells (E1 into E2)
- Format: cell-based
- measurement-parameters: T47D; Table 2 (17β-HSD1); [14C]-E1 60 nM, T-47D intact cells, 0.1 μM; read-out: Inhibition (0.1 μM)
# if value of inhibition at 0.1 µM reaches 20%, tag Satisfied; if it stays below, tag Not satisfied

Is inhibition at 0.1 µM for "C[C@]12CC[C@@H]3c4ccc(CO)cc4CC[C@H]3[C@@H]1C[C@H](Cc1cccc(C(N)=O)c1)[C@@H]2O" at or above 20%?
Satisfied

Could you verify whether the entry C[C@]12CC[C@@H]3c4ccc(CCO)cc4CC[C@H]3[C@@H]1CC(Cc1cccc(C(N)=O)c1)[C@@H]2O (stereo partly shown) shows inhibition at 0.1 µM of no less than 20%?
Not satisfied

Please tell me: is the compound "C[C@]12CC[C@@H]3c4ccc(OCCBr)cc4CC[C@H]3[C@@H]1C[C@H](Cc1cccc(C(N)=O)c1)[C@@H]2O" at or over 20% in terms of inhibition at 0.1 µM?
Satisfied

Threshold query (inhibition at 0.1 µM >= 20%) on "C[C@]12CC[C@@H]3c4ccc(B(O)O)cc4CC[C@H]3[C@@H]1C[C@H](Cc1cccc(C(N)=O)c1)[C@@H]2O"
Satisfied

Answer whether inhibition at 0.1 µM of "C[C@]12CC[C@@H]3c4ccc(CC(=O)O)cc4CC[C@H]3[C@@H]1C[C@H](Cc1cccc(C(N)=O)c1)[C@@H]2O" is greater than or equal to 20%.
Not satisfied

Form field: inhibition at 0.1 µM at least 20%? Entry: "C[C@]12CC[C@@H]3c4ccc(C(=O)O)cc4CC[C@H]3[C@@H]1C[C@H](Cc1cccc(C(N)=O)c1)[C@@H]2O"
Not satisfied

Assess whether reported inhibition at 0.1 µM for "C[C@]12CC[C@@H]3c4ccc(CCCO)cc4CC[C@H]3[C@@H]1C[C@H](Cc1cccc(C(N)=O)c1)[C@@H]2O" sits at 20% or higher.
Not satisfied
